Cited source: ChEMBL document CHEMBL1909046

assay.system: Alpha-1D adrenergic receptor (Homo sapiens, UniProt P25100); note: in other assays of this panel Not Active means under 50% inhibition at 10 µM
Sequence (P25100 whole entry): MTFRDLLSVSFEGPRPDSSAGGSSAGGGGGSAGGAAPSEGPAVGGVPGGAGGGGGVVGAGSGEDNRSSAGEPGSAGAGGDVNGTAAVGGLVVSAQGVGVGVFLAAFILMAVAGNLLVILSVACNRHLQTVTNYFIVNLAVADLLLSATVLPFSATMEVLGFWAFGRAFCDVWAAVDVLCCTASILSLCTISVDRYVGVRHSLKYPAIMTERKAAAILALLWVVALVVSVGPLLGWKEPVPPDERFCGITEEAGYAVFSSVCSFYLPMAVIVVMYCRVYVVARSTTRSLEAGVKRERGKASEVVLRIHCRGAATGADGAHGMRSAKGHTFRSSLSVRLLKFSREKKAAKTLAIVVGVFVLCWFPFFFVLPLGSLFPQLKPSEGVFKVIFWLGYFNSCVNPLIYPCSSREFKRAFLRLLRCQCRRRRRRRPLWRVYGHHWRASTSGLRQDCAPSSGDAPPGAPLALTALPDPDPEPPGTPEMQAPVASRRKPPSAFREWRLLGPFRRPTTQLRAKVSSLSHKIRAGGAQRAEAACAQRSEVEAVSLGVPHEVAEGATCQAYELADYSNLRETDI
Assay type: cell membranes, HEK293, Membrane
measurement.context: read-out: IC50
pIC50: −log10 of the molar value.
Returns one of y or n; y when pIC50 is >= 7.

| molecule | discrete.label |
| --- | --- |
| O=c1[nH]c2ccccc2n1CCCN1CCC(n2c(=O)[nH]c3cc(Cl)ccc32)CC1 | n |
| CN1C[C@H](C(=O)N[C@]2(C)O[C@@]3(O)[C@@H]4CCCN4C(=O)[C@H](Cc4ccccc4)N3C2=O)C[C@@H]2c3cccc4[nH]cc(c34)C[C@H]21 [DIHYDROERGOTAMINE] | y |
| CC(C)C[C@H]1C(=O)N2CCC[C@H]2[C@]2(O)O[C@](NC(=O)[C@@H]3C=C4c5cccc6[nH]c(Br)c(c56)C[C@H]4N(C)C3)(C(C)C)C(=O)N12 | y |
| N=C(N)N/N=C/c1c(Cl)cccc1Cl | n |
| O=c1n(CCCN2CCN(c3cccc(Cl)c3)CC2)nc2ccccn12 | n |
| OCCN1CCN(CCCN2c3ccccc3Sc3ccc(C(F)(F)F)cc32)CC1 | y |

---

assay.system: Estrogen receptor (Homo sapiens, UniProt P03372); note: in other assays of this panel Not Active means under 50% inhibition at 10 µM
Sequence (P03372 whole entry): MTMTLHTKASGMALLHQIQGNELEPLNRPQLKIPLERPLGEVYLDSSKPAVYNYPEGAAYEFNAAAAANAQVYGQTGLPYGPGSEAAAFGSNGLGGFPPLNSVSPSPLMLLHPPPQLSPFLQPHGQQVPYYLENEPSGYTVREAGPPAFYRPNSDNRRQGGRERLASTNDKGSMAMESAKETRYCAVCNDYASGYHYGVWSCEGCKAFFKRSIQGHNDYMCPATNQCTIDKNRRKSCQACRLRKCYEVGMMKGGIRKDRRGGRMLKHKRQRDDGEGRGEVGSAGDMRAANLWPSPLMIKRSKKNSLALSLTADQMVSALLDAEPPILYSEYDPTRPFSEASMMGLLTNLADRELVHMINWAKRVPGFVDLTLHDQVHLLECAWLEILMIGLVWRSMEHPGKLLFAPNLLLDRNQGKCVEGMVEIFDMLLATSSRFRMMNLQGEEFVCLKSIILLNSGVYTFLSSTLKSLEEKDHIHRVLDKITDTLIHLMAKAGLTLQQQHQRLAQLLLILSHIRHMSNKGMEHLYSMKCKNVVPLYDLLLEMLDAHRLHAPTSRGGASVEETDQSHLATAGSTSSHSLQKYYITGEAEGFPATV
protocol.notes: biochemical
pIC50: −log10 of the molar value.

| smiles.code | assay.system | pIC50 |
| --- | --- | --- |
| O=C(/C=C/c1ccc(O)c(O)c1)OCCc1ccccc1 | Estrogen receptor (Homo sapiens, UniProt P03372) | 5.10 |
| C#C[C@]1(O)CC[C@H]2[C@@H]3CCC4=Cc5oncc5C[C@]4(C)[C@H]3CC[C@@]21C | Estrogen receptor (Homo sapiens, UniProt P03372) | 4.75 |
| CC[C@]1(O)CC[C@H]2[C@@H]3CCC4=CCCC[C@@H]4[C@H]3CC[C@@]21C | Estrogen receptor (Homo sapiens, UniProt P03372) | 5.95 |

---

protocol.notes: DRUGMATRIX: Calcium Channel Type L, Benzothiazepine radioligand binding (ligand: [3H] Diltiazem)
Type: cell membranes, Rattus norvegicus, Wistar, Brain, Membrane
measurement.context: Not Active = under 50% inhibition at 10 µM; read-out: Ki
observed.property: Ki (µM)

| compound | readout.value |
| --- | --- |
| C#C[C@]1(O)CC[C@H]2[C@@H]3CCC4=Cc5oncc5C[C@]4(C)[C@H]3CC[C@@]21C | 13 |
| CCOC(=O)C1=C(C)NC(C)=C(C(=O)OC)C1c1cccc(Cl)c1Cl (centres undefined) | 0.02 |
| C#C[C@]1(O)CC[C@H]2[C@@H]3CCc4cc(O)ccc4[C@H]3CC[C@@]21C | 13.7 |
| C[C@@H]1C[C@H]2[C@@H]3CCC4=CC(=O)C=C[C@]4(C)C3=CC[C@]2(C)[C@H]1C(=O)CN1CCN(c2cc(N3CCCC3)nc(N3CCCC3)n2)CC1 | 2.4 |

---

assay.system: Receptor tyrosine-protein kinase erbB-2 (Homo sapiens, UniProt P04626); note: in other assays of this panel Not Active means under 50% inhibition at 10 µM;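 note: inhibition of HER2 kinase enzyme activity, measured with Poly(Glu:Tyr) as the phosphorylation substrate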
protocol.notes: biochemical
Format: cell-based, Insect cells
measurement.context: insect cells; read-out: IC50
pIC50: −log10 of the molar value.

| substance | pIC50 |
| --- | --- |
| COBALT(II) ACETYLACETONATE | 5.50 |

---

assay.system: C-C chemokine receptor type 4 (Homo sapiens, UniProt P51679); note: in other assays of this panel Not Active means under 50% inhibition at 10 µM
Sequence (P51679 whole entry): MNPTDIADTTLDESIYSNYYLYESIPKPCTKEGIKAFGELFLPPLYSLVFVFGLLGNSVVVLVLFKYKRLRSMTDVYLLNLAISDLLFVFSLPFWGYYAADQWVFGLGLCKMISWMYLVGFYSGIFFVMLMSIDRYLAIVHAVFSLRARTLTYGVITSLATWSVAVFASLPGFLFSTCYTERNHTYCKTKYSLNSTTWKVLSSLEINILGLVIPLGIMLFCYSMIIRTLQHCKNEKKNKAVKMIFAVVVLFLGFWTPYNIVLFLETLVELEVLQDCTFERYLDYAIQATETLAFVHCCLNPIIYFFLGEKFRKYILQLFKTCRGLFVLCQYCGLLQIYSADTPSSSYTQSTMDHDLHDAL
Assay type: cell membranes, Membrane
measurement.context: chem-1

| substance | assay.system | IC50 |
| --- | --- | --- |
| COBALT(II) ACETYLACETONATE | C-C chemokine receptor type 4 (Homo sapiens, UniProt P51679) | Not Active |
| INSULIN HUMAN | C-C chemokine receptor type 4 (Homo sapiens, UniProt P51679) | Not Active |
| THIMEROSAL | C-C chemokine receptor type 4 (Homo sapiens, UniProt P51679) | Not Active |
| STANNOUS FLUORIDE | C-C chemokine receptor type 4 (Homo sapiens, UniProt P51679) | Not Active |
| POLYVINYL ALCOHOL | C-C chemokine receptor type 4 (Homo sapiens, UniProt P51679) | Not Active |
